experiment: Oral bioavailability and pharmacokinetics studies; assay type: in vivo, male Balb/c mice; settings: plasma; oral 50 mg/kg vs intravenous, male Balb/c mouse
MEASUREMENT NAME: bioavailability (%)

{"COMPOUND": "O=C(CCCCCCC(=O)Nc1ccccc1)NO [SAHA, Suberoylanilide Hydroxamic Acid, reference compound]", "UNIT LABEL": "%", "MEASURED": 11}
{"COMPOUND": "CCN(CC)Cc1ccc(-c2cn(Cc3ccc(C(=O)NO)cc3)nn2)c(F)c1", "UNIT LABEL": "%", "MEASURED": 68}

====

biological target: HDAC3 (Homo sapiens, UniProt O15379); assay: Isoform selectivity assay, recombinant HDAC isoforms
Sequence (O15379 whole entry, canonical isoform): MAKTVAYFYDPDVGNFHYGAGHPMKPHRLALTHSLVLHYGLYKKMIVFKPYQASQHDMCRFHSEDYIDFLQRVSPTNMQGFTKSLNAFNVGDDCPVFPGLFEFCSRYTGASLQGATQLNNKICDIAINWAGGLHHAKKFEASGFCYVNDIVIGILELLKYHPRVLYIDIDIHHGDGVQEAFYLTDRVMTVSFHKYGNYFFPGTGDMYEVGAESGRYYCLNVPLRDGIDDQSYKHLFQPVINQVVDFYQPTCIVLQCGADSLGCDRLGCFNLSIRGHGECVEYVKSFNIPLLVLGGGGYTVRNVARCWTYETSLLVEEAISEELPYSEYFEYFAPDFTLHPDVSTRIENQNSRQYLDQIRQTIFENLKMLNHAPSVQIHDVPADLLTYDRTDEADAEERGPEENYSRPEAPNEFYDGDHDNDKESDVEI
pIC50: −log10 of the molar value.
MEASUREMENT NAME: pIC50

{"STRUCTURE SMILES STRING": "O=C(NO)c1ccc(Cn2cc(-c3ccc(CN4CCCC4)cc3)nn2)cc1", "MEASURED": 8.70}

====

Molecular target: CYP 1A2 (Homo sapiens, UniProt P05177)
Construct: purchased
Sequence (P05177 1-516): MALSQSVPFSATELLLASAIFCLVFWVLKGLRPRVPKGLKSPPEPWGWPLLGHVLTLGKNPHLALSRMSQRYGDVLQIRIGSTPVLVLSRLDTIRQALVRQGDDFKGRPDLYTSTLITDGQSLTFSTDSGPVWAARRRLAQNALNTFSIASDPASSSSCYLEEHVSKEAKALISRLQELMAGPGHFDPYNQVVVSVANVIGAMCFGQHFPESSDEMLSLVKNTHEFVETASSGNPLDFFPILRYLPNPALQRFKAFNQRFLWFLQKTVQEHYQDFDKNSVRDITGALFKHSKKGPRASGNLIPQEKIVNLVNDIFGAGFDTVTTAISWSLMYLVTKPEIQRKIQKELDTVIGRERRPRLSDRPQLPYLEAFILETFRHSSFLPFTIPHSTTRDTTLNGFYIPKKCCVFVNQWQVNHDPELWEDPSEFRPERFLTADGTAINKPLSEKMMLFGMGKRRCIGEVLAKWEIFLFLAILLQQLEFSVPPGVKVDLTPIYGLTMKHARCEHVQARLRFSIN
Assay: Cytochrome-P450 isoforms liability determination
Assay type: in vitro ADME
pIC50: −log10 of the molar value.

{"COMPOUND": "O=C(CCCCCCC(=O)Nc1ccccc1)NO [SAHA, Suberoylanilide Hydroxamic Acid, reference compound]", "pIC50": 5.01}

====

system: human HDAC (Hela cells nuclear extract); assay: HDAC activity screening, Hela nuclear extract, Boc-Lys(Ac)-AMC substrate; assay type: biochemical; details: 10 μM compound, Hela nuclear extract
# HDAC % Inhibition (10 μM) listing for each entry below

{"STRUCTURE SMILES STRING": "COc1ccc(-c2cn(CS(=O)(=O)NCc3ccc(C(=O)NO)cc3)nn2)cc1", "HDAC % Inhibition (10 μM) (%)": 91}
{"STRUCTURE SMILES STRING": "O=C(NO)c1ccc(Cn2cc(-c3ccc(CN4CCCC4)cc3)nn2)cc1", "HDAC % Inhibition (10 μM) (%)": 100}
{"STRUCTURE SMILES STRING": "Cc1ccc(-c2cn(CS(=O)(=O)NCc3ccc(C(=O)NO)cc3)nn2)cc1", "HDAC % Inhibition (10 μM) (%)": 96}
{"STRUCTURE SMILES STRING": "CN(C)Cc1ccc(-c2cn(Cc3ccc(C(=O)NO)cc3)nn2)cc1", "HDAC % Inhibition (10 μM) (%)": 100}

====

system: K562; test: Anti-proliferative activity (GI50); format: cell-based; conditions: Homo sapiens, K562; Table 9; Leukemia; read-out: Anti-proliferative activity (GI50) K562
Where a name gives a salt, the structure may show the parent alone.

{"COMPOUND": "O=C(/C=C/c1ccc(Cn2cc(-c3ccc(CN4CCCC4)cc3)nn2)cc1)NO", "GI50, nM": 190}
{"COMPOUND": "O=C(NO)c1ccc(Cn2cc(-c3ccc(CN4CCCC4)cc3)nn2)cc1", "GI50, nM": 300}
{"COMPOUND": "O=C(/C=C/c1cccc(Cn2cc(-c3ccc(CN4CCOCC4)cc3)nn2)c1)NO [Example 25, hydrochloride]", "GI50, nM": 200}
{"COMPOUND": "CN(C)Cc1ccc(-c2cn(Cc3ccc(/C=C/C(=O)NO)cc3)nn2)cc1", "GI50, nM": 200}
{"COMPOUND": "O=C(NO)c1ccc(Cn2cc(-c3ccc(CN4CCOCC4)cc3)nn2)cc1", "GI50, nM": 300}

====

# GI50 listing for each entry below
test system: Calu-6; assay: Anti-proliferative activity (GI50); format: cell-based; conditions: Homo sapiens, Calu-6; Table 9; Lung; read-out: Anti-proliferative activity (GI50) Calu-6
Where a name gives a salt, the structure may show the parent alone.
MEASUREMENT NAME: GI50 (nM)

{"MOLECULE": "O=C(/C=C/c1ccc(Cn2cc(-c3ccc(CN4CCCC4)cc3)nn2)cc1)NO", "TARGET OF ASSAY": "Calu-6", "UNIT LABEL": "nM", "MEASURED": 410}
{"MOLECULE": "O=C(NO)c1ccc(Cn2cc(-c3ccc(CN4CCOCC4)cc3)nn2)cc1", "TARGET OF ASSAY": "Calu-6", "UNIT LABEL": "nM", "MEASURED": 1400}
{"MOLECULE": "CN(C)Cc1ccc(-c2cn(Cc3ccc(/C=C/C(=O)NO)cc3)nn2)cc1", "TARGET OF ASSAY": "Calu-6", "UNIT LABEL": "nM", "MEASURED": 400}
{"MOLECULE": "O=C(NO)c1ccc(Cn2cc(-c3ccc(CN4CCCC4)cc3)nn2)cc1", "TARGET OF ASSAY": "Calu-6", "UNIT LABEL": "nM", "MEASURED": 600}
{"MOLECULE": "O=C(/C=C/c1cccc(Cn2cc(-c3ccc(CN4CCOCC4)cc3)nn2)c1)NO [Example 25, hydrochloride]", "TARGET OF ASSAY": "Calu-6", "UNIT LABEL": "nM", "MEASURED": 600}

====

Test system: U-87-MG
Assay: Anti-proliferative activity (GI50)
Type: cell-based
Conditions: Homo sapiens, Table 9, Brain, read-out: Anti-proliferative activity (GI50) U-87-MG
Experimental: Cells were seeded in a 96-well cell culture plates at a concentration of 10,000 cells per well and incubated at 37° C. in CO2 incubator. […] The plate containing cells and test compounds was treated similarly after 48 hours of incubation. […] Plates were agitated to ensure dissolution of the formazan crystals in DMSO and absorbance was read at 570 nm (A570). […]
Structures can show the parent of a compound that is named as a salt.
Criterion: GI50 strictly under 1000 nM. Met: true. Not met: false.

{"MOLECULE": "O=C(/C=C/c1ccc(Cn2cc(-c3ccc(CN4CCCC4)cc3)nn2)cc1)NO [Example 16]", "DISCRETE LABEL": "true"}
{"MOLECULE": "O=C(/C=C/c1cccc(Cn2cc(-c3ccc(CN4CCOCC4)cc3)nn2)c1)NO [Example 25, hydrochloride]", "DISCRETE LABEL": "false"}
{"MOLECULE": "O=C(NO)c1ccc(Cn2cc(-c3ccc(CN4CCCC4)cc3)nn2)cc1 [Example 8]", "DISCRETE LABEL": "true"}
{"MOLECULE": "O=C(NO)c1ccc(Cn2cc(-c3ccc(CN4CCOCC4)cc3)nn2)cc1 [Example 9]", "DISCRETE LABEL": "false"}

====

test system: human HDAC (Hela cells nuclear extract); experiment: HDAC activity screening, Hela nuclear extract, Boc-Lys(Ac)-AMC substrate; assay type: biochemical; details: 10 μM compound, Hela nuclear extract

{"STRUCTURE SMILES STRING": "CN(C)c1ccc(-c2cn(Cc3cccc(/C=C/C(=O)NO)c3)nn2)cc1", "UNIT LABEL": "%", "HDAC % Inhibition (10 μM)": 99}
{"STRUCTURE SMILES STRING": "O=C(NO)c1ccc(CNS(=O)(=O)Cn2cc(-c3cccnc3)nn2)cc1", "UNIT LABEL": "%", "HDAC % Inhibition (10 μM)": 92}
{"STRUCTURE SMILES STRING": "O=C(NO)c1ccc(Cn2cc(-c3ccccc3)nn2)cc1", "UNIT LABEL": "%", "HDAC % Inhibition (10 μM)": 100}
{"STRUCTURE SMILES STRING": "O=C(NO)c1ccc(Cn2cc(-c3ccc(CN4CCOCC4)cc3)nn2)cc1", "UNIT LABEL": "%", "HDAC % Inhibition (10 μM)": 99}
{"STRUCTURE SMILES STRING": "O=C(NO)c1ccc(Cn2cc(-c3ccc(-c4ccccc4)cc3)nn2)cc1", "UNIT LABEL": "%", "HDAC % Inhibition (10 μM)": 87}
{"STRUCTURE SMILES STRING": "O=C(NO)c1ccc(CNS(=O)(=O)Cn2cc(-c3ccccc3)nn2)cc1", "UNIT LABEL": "%", "HDAC % Inhibition (10 μM)": 99}
{"STRUCTURE SMILES STRING": "O=C(/C=C/c1cccc(CNS(=O)(=O)Cn2cc(-c3ccccc3)nn2)c1)NO", "UNIT LABEL": "%", "HDAC % Inhibition (10 μM)": 92}
{"STRUCTURE SMILES STRING": "O=C(NO)c1ccc(Cn2cc(-c3ccccc3F)nn2)cc1", "UNIT LABEL": "%", "HDAC % Inhibition (10 μM)": 94}
{"STRUCTURE SMILES STRING": "O=C(/C=C/c1cccc(Cn2cc(-c3ccccc3)nn2)c1)NO", "UNIT LABEL": "%", "HDAC % Inhibition (10 μM)": 96}

These data points were gathered from patent US20120101099A1.
